The measured values listed here are drawn from patent US20230086703A1.

biological target: human CTPS1 (Homo sapiens, UniProt P17812); construct: FLAG (with GG linker); His8 (with GG linker); purchased Proteros biostructures GmbH; experiment: RapidFire/MS-based enzyme selectivity assay (human CTPS1 versus CTPS2), CTPS1 isoform; assay type: biochemical; settings: RapidFire/MS IC50 values of CTPS1 and CTPS2; Table 15
Sequence (P17812 whole entry, canonical isoform): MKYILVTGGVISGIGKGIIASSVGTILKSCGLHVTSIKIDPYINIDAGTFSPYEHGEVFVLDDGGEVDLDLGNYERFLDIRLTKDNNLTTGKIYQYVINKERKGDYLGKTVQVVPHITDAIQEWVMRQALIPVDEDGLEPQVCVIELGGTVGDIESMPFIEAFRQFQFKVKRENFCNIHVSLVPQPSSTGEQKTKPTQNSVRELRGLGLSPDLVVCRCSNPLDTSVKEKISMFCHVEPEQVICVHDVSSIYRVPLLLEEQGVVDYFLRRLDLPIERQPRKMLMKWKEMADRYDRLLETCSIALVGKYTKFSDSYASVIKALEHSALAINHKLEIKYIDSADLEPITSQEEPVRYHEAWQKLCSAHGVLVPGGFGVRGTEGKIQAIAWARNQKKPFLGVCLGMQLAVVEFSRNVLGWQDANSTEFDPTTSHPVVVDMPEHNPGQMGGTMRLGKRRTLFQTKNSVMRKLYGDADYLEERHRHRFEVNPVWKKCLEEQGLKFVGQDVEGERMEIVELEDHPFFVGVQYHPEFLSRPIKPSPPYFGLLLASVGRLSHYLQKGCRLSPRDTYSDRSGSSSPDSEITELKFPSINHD
Measurement kind: Selectivity (fold selectivity between CTPS1 and CTPS2)

# example entries with known answers
compound="CCOc1cncc(-c2ccc(C(=O)NC(CC)c3ccnc(NS(=O)(=O)C4CC4)n3)c(F)c2)n1 (stereo not shown) [P216]" result="+++ (>60 fold (+++))"
compound="CCOc1cncc(-c2ccc(NC(=O)C3(c4ccnc(NS(=O)(=O)C5CC5)n4)CCOCC3)c(F)c2)n1 [P143]" result="+++ (>60 fold (+++))"
compound="CCOc1cncc(-c2ccc(NC(=O)C3(c4ccnc(NS(=O)(=O)C5CC5)n4)CCCC3)nc2)n1 [P136]" result="+++ (>60 fold (+++))"
compound="CCOc1cncc(-c2ccc(NC(=O)C(C)(C)c3ccnc(NS(=O)(=O)C4CC4)n3)nc2)n1 [P31]" result="+++ (>60 fold (+++))"
compound="O=C(Cc1ccnc(NS(=O)(=O)C2CC2)n1)Nc1ccc(-c2cccnc2)cc1 [P16]" result="++ (>30-60 fold (++))"

Prompt line: Report Selectivity (fold selectivity between CTPS1 and CTPS2) for CC(C)(C(=O)Nc1ccc(-c2cncc(C3CC3)n2)cn1)c1ccnc(NS(=O)(=O)C2CC2)n1 [P125] please.
Response line: ++ (>30-60 fold (++))

Prompt line: Requested read-out: Selectivity (fold selectivity between CTPS1 and CTPS2). Entry: CCOc1cncc(-c2ccc(NC(=O)C(F)(CC)c3ccnc(NS(=O)(=O)C4CC4)n3)nc2)n1 (stereo not shown) [P112]
Response line: ++ (>30-60 fold (++))

Prompt line: Can you look up the measured Selectivity (fold selectivity between CTPS1 and CTPS2) of CCOc1cncc(-c2ccc(NC(=O)C(F)(CC)c3ccnc(NS(=O)(=O)C4CC4)n3)nc2)n1 (single isomer, unassigned) [P114] for me?
Response line: +++ (>60 fold (+++))

Prompt line: Which Selectivity (fold selectivity between CTPS1 and CTPS2) reading was recorded for the compound CC(C)Oc1cncc(-c2ccc(NC(=O)Cc3ccnc(NS(=O)(=O)C4CC4)n3)cc2)n1 [P21] ?
Response line: ++ (>30-60 fold (++))

Prompt line: // query Selectivity (fold selectivity between CTPS1 and CTPS2) value for entry CCOc1cncc(-c2ccc(NC(=O)C(C)(C)c3ccnc(NS(=O)(=O)C4CC4)n3)c(F)c2)n1 [P38]
Response line: + (2-30 fold (+))

Prompt line: # lookup: Selectivity (fold selectivity between CTPS1 and CTPS2) of CCOc1cncc(-c2ccc(NC(=O)C(C)(C)c3ccnc(NS(C)(=O)=O)n3)nc2)n1 [P76]
Response line: ++ (>30-60 fold (++))

Prompt line: Given the compound CCOc1cncc(-c2ccc(NC(=O)C(C)(C)c3cncc(NS(=O)(=O)C4CC4)n3)nc2)n1 [P195] , what is its reported Selectivity (fold selectivity between CTPS1 and CTPS2)?
Response line: +++ (>60 fold (+++))

Prompt line: If you can, please state the reported Selectivity (fold selectivity between CTPS1 and CTPS2) value of CCOc1cncc(-c2ccc(NC(=O)C(C)(OC)c3cncc(NS(=O)(=O)C4CC4)n3)nc2)n1 (single isomer, unassigned) [P205b] .
Response line: ++ (>30-60 fold (++))

Prompt line: Entry CCOc1cncc(-c2ccc(NC(=O)C3(c4ccnc(NS(=O)(=O)C5CC5)n4)CC3)cc2)n1 [P83] has what Selectivity (fold selectivity between CTPS1 and CTPS2)?
Response line: +++ (>60 fold (+++))

Prompt line: Query: Selectivity (fold selectivity between CTPS1 and CTPS2); subject: CCOc1cncc(-c2ccc(NC(=O)C(F)(CC)c3ccnc(NS(C)(=O)=O)n3)nc2)n1 (stereo not shown) [P151]
Response line: +++ (>60 fold (+++))

Prompt line: Endpoint output: Selectivity (fold selectivity between CTPS1 and CTPS2) of CC(C)(NC(=O)c1ccc(-c2cncc(C(F)(F)F)n2)cc1)c1cncc(NS(=O)(=O)C2CC2)n1 [P222] . Value?
Response line: + (2-30 fold (+))
